# MEASURED_ON: Cannabinoid receptor 2 (Homo sapiens, UniProt P34972)
# Sequence (P34972 whole entry): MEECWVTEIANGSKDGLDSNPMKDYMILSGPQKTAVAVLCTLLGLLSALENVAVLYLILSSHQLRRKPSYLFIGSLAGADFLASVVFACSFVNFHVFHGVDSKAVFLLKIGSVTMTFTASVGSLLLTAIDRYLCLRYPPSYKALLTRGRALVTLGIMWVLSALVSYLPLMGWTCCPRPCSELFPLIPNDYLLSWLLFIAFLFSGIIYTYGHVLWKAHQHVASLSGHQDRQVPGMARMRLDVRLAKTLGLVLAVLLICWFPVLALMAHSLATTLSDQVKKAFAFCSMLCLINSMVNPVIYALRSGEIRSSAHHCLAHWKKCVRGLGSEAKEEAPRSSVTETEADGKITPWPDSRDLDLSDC
# ASSAY_PROTOCOL: Displacement of [3H]CP55940 from recombinant human CB2 receptor expressed in HEK293 cell membrane assessed as inhibition constant incubated for 90 mins by competition binding assay
# Type: cell membranes
# APPLIED_CONDITIONS: read-out: Ki
PARAMETER_MEASURED: Ki

Below: 5 compounds and their reported Ki.
O=C(c1ccc(Cl)cc1)c1cccn1Cc1ccco1 = > 10 µM
CC(=O)NCCCCn1cccc1C(=O)c1ccccc1Cl = > 10 µM
O=C(NCc1cccc(O)c1)c1cccn1Cc1ccc(F)cc1 = > 10 µM
O=C(Nc1ccc(O)cc1)[C@@H]1Cc2ccccc2CN1C(=O)CCO = > 10 µM
Cc1ccc(CNC(=O)c2cccn2Cc2ccc(F)cc2)cc1 = > 10 µM

I am curious: what Ki value has been reported for O=C(NC12CC3CC(CC(C3)C1)C2)c1cccn1Cc1ccc(F)cc1 ?
0.01 µM

* * *

# MEASURED_ON: UniProt P21554
# Sequence (P21554 whole entry): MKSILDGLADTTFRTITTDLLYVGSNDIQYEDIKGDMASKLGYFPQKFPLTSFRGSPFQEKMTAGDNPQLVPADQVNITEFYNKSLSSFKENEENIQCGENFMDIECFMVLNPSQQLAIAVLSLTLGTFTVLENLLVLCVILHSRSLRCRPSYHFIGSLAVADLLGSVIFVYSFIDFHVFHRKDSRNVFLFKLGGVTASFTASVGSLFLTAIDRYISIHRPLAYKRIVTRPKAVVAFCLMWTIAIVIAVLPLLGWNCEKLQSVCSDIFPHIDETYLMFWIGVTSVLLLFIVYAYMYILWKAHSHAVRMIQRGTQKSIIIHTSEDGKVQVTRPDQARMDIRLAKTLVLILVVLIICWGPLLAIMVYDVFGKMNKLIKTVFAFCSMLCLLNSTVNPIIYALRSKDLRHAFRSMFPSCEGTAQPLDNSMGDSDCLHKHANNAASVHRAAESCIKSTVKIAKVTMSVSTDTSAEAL
# ASSAY_PROTOCOL: Displacement of [3H]CP55940 from recombinant human CB1 receptor expressed in HEK293 cell membrane incubated for 90 mins by competition binding assay
# Type: cell membranes
# APPLIED_CONDITIONS: read-out: IC50
PARAMETER_MEASURED: IC50

The cases that follow already have their IC50 on record.
COC(=O)CCCn1cccc1C(=O)c1ccccc1Cl = > 10 µM
CC(=O)OCCCCn1cccc1C(=O)c1ccccc1Cl = > 10 µM
O=C(c1ccccc1Cl)c1cccn1Cc1ccc(O)cc1 = > 10 µM
Cc1ccc(NC(=O)c2cccn2Cc2ccc(F)cc2)cc1 = 6.13 µM
O=C(CCO)N[C@@H](Cc1ccc(O)cc1)C(=O)Nc1ccc(O)cc1 = > 10 µM

--- query ---
Entry CC(=O)OCCn1cccc1C(=O)c1ccccc1Cl has what IC50?
> 10 µM

* * *

# MEASURED_ON: Cannabinoid receptor 2 (Homo sapiens, UniProt P34972)
# ASSAY_PROTOCOL: Displacement of [3H]CP55940 from recombinant human CB2 receptor expressed in HEK293 cell membrane assessed as inhibition constant incubated for 90 mins by competition binding assay
# Format: cell membranes
# APPLIED_CONDITIONS: read-out: Ki
// reported Ki for each item listed

Recorded results for 3 molecules are shown here.
Nc1cccc(C(=O)Nc2cccc(NC(=O)CO)c2)c1 = > 10 µM
CC(=O)Oc1cccc(Cn2cccc2C(=O)c2ccccc2Cl)c1 = 1.56 µM
CC(=O)OCCCCn1cccc1C(=O)NCc1ccccc1 = > 10 µM

Ki for O=C(c1ccccc1Cl)c1cccn1Cc1cccc(O)c1 ?
> 10 µM

* * *

Readings of pIC50 for the listed compounds
# MEASURED_ON: Cannabinoid receptor 2 (Homo sapiens, UniProt P34972)
# ASSAY_PROTOCOL: Displacement of [3H]CP55940 from recombinant human CB2 receptor expressed in HEK293 cell membrane incubated for 90 mins by competition binding assay
# Format: cell membranes
# APPLIED_CONDITIONS: read-out: IC50
The quantity pIC50 is defined as the negative base-10 logarithm of the molar concentration.

Look at this compound and give its reported pIC50. O=C(c1ccccc1Cl)c1cccn1CC12CC3CC(CC(C3)C1)C2
5.37

O=C(NCc1ccccc1)c1cccn1Cc1ccc(F)cc1 ?
5.34

Please give the result for O=C(Nc1cccc2ccccc12)c1cccn1Cc1ccc(F)cc1 too.
6.41

Can you handle CC(=O)Oc1cccc(Cn2cccc2C(=O)c2ccccc2Cl)c1 next?
5.01

Repeat with O=C(Nc1cccc(CO)c1)c1cccn1Cc1ccc(F)cc1
5.80

Cc1ccc(NC(=O)c2cccn2Cc2ccc(F)cc2)cc1 , same question.
5.88
